molecular target: mu opiate receptor (MOR) (Rattus norvegicus); construct: from tissue; host or cells: striatal tissue (membrane preparation); assay: MOR agonist activity using [35S]GTPγS binding assay in striatal membranes; type: biochemical; settings: 1 μM + βNFA; average of two runs
Parameter: MOR agonist activity ([35S]GTPγS binding to Gαo), preliminary study. Scope: all listed entries.
The reply should contain only the number, in %.

In the examples that follow, each entry is paired with its recorded MOR agonist activity ([35S]GTPγS binding to Gαo), preliminary study.
C=CCN1CCC2(CC1)OCCN2S(=O)(=O)c1ccc(C)cc1
60.4
Cc1ccc(S(=O)(=O)N2CCOC23CCN(CC2CCC2)CC3)cc1
56.6
O=S(=O)(c1ccc(OC(F)(F)F)cc1)N1CCOC12CCN(CC1CC1)CC2
49.5
C[C@@H](NC(=O)[C@@H](N)Cc1ccc(O)cc1)C(=O)NCC(=O)N(C)[C@@H](Cc1ccccc1)C(=O)NCCO [DAMGO, [D-Ala2, N-MePhe4, Gly-ol]-enkephalin, reference compound]
56.8

Kindly consider the entry below.
Would you kindly share the measured MOR agonist activity ([35S]GTPγS binding to Gαo), preliminary study for Cc1ccc(S(=O)(=O)N2CCOC23CCN(CC2CC2)CC3)cc1 [Compound C0134M] ?
53.2

----------
biological target: mu opiate receptor (MOR) (Rattus norvegicus); construct: from tissue; host or cells: striatal tissue (membrane preparation); experiment: MOR agonist activity using [35S]GTPγS binding assay in striatal membranes; type: biochemical; settings: 1 μM compound + 1 μM β-FNA (MOR antagonist); striatal membranes
Reported endpoint: MOR agonist activity, [35S]GTPγS binding, 1 μM + BFNA (%)
Field format: number, assumed %, no unit text.

Item under review: C=CCN1CCC2(CC1)OCCN2S(=O)(=O)c1ccc(C(C)=O)cc1 [Compound C0096M] . Reported MOR agonist activity, [35S]GTPγS binding, 1 μM + BFNA?
127.1

Report MOR agonist activity, [35S]GTPγS binding, 1 μM + BFNA for O=C1CN(Cc2ccccc2)C2(CCN(C3CCCCC3)CC2)N1 [C0137M(P7)] please.
55.8

Data request, read-out MOR agonist activity, [35S]GTPγS binding, 1 μM + BFNA, for COc1ccc(S(=O)(=O)N2CCSC23CCNCC3)cc1
56.2

Recorded MOR agonist activity, [35S]GTPγS binding, 1 μM + BFNA for CCCCN1CCC2(CC1)OCCN2S(=O)(=O)c1ccc(C(C)=O)cc1 [Compound C0101M] , please?
174.8

Look up MOR agonist activity, [35S]GTPγS binding, 1 μM + BFNA for this compound: COc1ccc(S(=O)(=O)N2CCOC23CCN(C(C)C)CC3)cc1 [Compound C0133M]
72.4

Which MOR agonist activity, [35S]GTPγS binding, 1 μM + BFNA value is on record for CN1CCC2(CC1)NC(=O)CN2Cc1ccccc1 [Compound C0104M] ?
143.8

Record request: MOR agonist activity, [35S]GTPγS binding, 1 μM + BFNA value, item C[C@@H](NC(=O)[C@@H](N)Cc1ccc(O)cc1)C(=O)NCC(=O)N(C)[C@@H](Cc1ccccc1)C(=O)NCCO [DAMGO, [D-Ala2, N-MePhe4, Gly-ol]-enkephalin, reference compound]
53.2

Find the recorded MOR agonist activity, [35S]GTPγS binding, 1 μM + BFNA belonging to CN1CCC2(CC1)OCCN2S(=O)(=O)c1ccc(S(C)(=O)=O)cc1 [Compound C0106M] and report it.
117.2

----------
Overview of recorded MOR agonist activity, [35S]GTPγS binding, FLNA-binding compound as agonist at 1 μM for various compounds
target: mu opiate receptor (MOR) (Rattus norvegicus, UniProt P33535); construct: from tissue; host or cells: striatal tissue (membrane preparation); test: MOR agonist activity using [35S]GTPγS binding assay in striatal membranes; assay type: biochemical; conditions: 1 μM compound; striatal membranes; Series C-2
Sequence (P33535 whole entry): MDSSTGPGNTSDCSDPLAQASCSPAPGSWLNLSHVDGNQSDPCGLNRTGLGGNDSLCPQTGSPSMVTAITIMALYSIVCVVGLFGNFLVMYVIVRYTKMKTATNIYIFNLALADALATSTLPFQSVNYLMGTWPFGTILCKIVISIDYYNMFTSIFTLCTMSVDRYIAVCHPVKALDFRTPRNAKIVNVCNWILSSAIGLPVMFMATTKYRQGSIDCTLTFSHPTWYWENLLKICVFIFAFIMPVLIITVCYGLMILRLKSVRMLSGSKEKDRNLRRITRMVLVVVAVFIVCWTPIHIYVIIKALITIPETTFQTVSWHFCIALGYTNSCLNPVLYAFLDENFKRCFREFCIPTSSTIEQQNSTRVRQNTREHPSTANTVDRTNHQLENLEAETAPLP
Form entry: value (%) — number only.

CC(=O)c1ccc(S(=O)(=O)N2CC(CN(C)C)OC23CCN(CC2CC2)CC3)cc1 (stereo not shown) [Compound C0128M]
286.0

Which value of MOR agonist activity, [35S]GTPγS binding, FLNA-binding compound as agonist at 1 μM has been reported for CC(=O)c1ccc(S(=O)(=O)N2CCOC23CCNCC3)cc1 in the records?
492.9

----------
biological target: mu opiate receptor (MOR) (Rattus norvegicus, UniProt P33535); construct: from tissue; host or cells: striatal tissue (membrane preparation); experiment: MOR agonist activity using [35S]GTPγS binding assay in striatal membranes; format: biochemical; conditions: 1 μM compound; striatal membranes; Series C-2
Known MOR agonist activity, [35S]GTPγS binding, FLNA-binding compound as agonist at 1 μM of a selection of compounds
Give the quantity in %, number only.

COc1ccc(S(=O)(=O)N2CCC3(CC2)NCCO3)cc1
288.4
CCN1CCC2(CC1)OCCN2S(=O)(=O)c1ccc(OC)cc1 [Compound C0089M]
295.3
COc1ccc(S(=O)(=O)N2CCOC23CCN(C)CC3)cc1 [Compound C0088M]
355.3

Next compound, MOR agonist activity, [35S]GTPγS binding, FLNA-binding compound as agonist at 1 μM to be filled in.
API: value(readout= MOR agonist activity, [35S]GTPγS binding, FLNA-binding compound as agonist at 1 μM, system= mu opiate receptor (MOR) (Rattus norvegicus, UniProt P33535), query= CS(=O)(=O)c1ccc(S(=O)(=O)N2CCOC23CCN(CC2CC2)CC3)cc1 [Compound C0126M] )
265.3

----------
target: mu opiate receptor (MOR) (Rattus norvegicus, UniProt P33535); construct: from tissue; host or cells: striatal tissue (membrane preparation); experiment: MOR agonist activity using [35S]GTPγS binding assay in striatal membranes; type: biochemical; conditions: 0.1 μM compound; striatal membranes; Series C-2
Reported endpoint: MOR agonist activity, [35S]GTPγS binding, FLNA-binding compound as agonist at 0.1 μM (%)
Note: unit % is implicit; provide only the numeric part.

C=CCN1CCC2(CC1)OCCN2S(=O)(=O)c1ccc(OC)cc1 [Compound C0091M]
207.9
C=CCN1CCC2(CC1)OCCN2S(=O)(=O)c1ccc(C(C)=O)cc1 [Compound C0096M]
186.4
O=S(=O)(c1cccc2cccnc12)N1CCC2(CC1)OCCN2S(=O)(=O)c1cccc2cccnc12 [Compound C0143M]
81.0
CC(=O)c1ccc(S(=O)(=O)N2CCC3(CC2)NCCS3)cc1
166.5
CC(=O)c1ccc(S(=O)(=O)N2CCC3(CC2)OCCN3S(=O)(=O)c2ccc(C(C)=O)cc2)cc1
217.0
O=[N+]([O-])c1ccc(S(=O)(=O)N2CCC3(CC2)NCCCO3)cc1
149.2

Kindly consider the entry below.
Give its MOR agonist activity, [35S]GTPγS binding, FLNA-binding compound as agonist at 0.1 μM value. Item: O=C1CNC2(CCNCC2)N1Cc1ccccc1 [Compound C0114M]
114.0

----------
biological target: mu opiate receptor (MOR) (Rattus norvegicus); construct: from tissue; host or cells: striatal tissue (membrane preparation); test: MOR agonist activity using [35S]GTPγS binding assay in striatal membranes; type: biochemical; details: 0.1 μM compound; striatal membranes; Series C-2
Reported endpoint: MOR agonist activity, [35S]GTPγS binding, FLNA-binding compound as agonist at 0.1 μM (%)
Hi! Could you send only the number? It should be in %, unit omitted.

Illustrative cases are given below, each with its answer.
CCc1ccc(S(=O)(=O)N2CCOC23CCN(CC2CC2)CC3)cc1 [Compound C0135M]
161.3
CN1CCC2(CC1)NC(=O)CN2Cc1ccccc1 [Compound C0104M]
188.2
CN1CCC2(CC1)OCCN2S(=O)(=O)c1ccc(S(C)(=O)=O)cc1 [Compound C0106M]
171.8

Which MOR agonist activity, [35S]GTPγS binding, FLNA-binding compound as agonist at 0.1 μM is listed for COc1ccc(S(=O)(=O)N2CCC3(CC2)NCCO3)cc1 ?
207.2

Which measured MOR agonist activity, [35S]GTPγS binding, FLNA-binding compound as agonist at 0.1 μM value corresponds to COc1ccc(S(=O)(=O)N2CCSC23CCNCC3)cc1 ?
156.2

Query (compound): CN1CCC2(CC1)NCC(=O)N2Cc1ccccc1 [Compound C0105M] ; field requested: MOR agonist activity, [35S]GTPγS binding, FLNA-binding compound as agonist at 0.1 μM
198.1

----------
Below, each entry is listed with its recorded MOR agonist activity, [35S]GTPγS binding, FLNA-binding compound as agonist at 0.1 μM.
Target: mu opiate receptor (MOR) (Rattus norvegicus, UniProt P33535)
Construct: from tissue; host or cells: striatal tissue (membrane preparation)
Experiment: MOR agonist activity using [35S]GTPγS binding assay in striatal membranes
Type: biochemical
Conditions: 0.1 μM compound; striatal membranes; Series C-2
Protocol: To assess the mu opiate receptor (MOR) agonist activity of positive compounds from the FLNA screening, compounds were tested in a [^35S]GTPγS binding assay using striatal membranes. […] The immunocomplexes so formed were collected by incubation at 25° C. for 30 minutes with 40 μl of agarose-conjugated protein A/G beads and centrifugation at 5,000×g at 4° C. for 5 minutes. […] The radioactivity in the suspension was determined by liquid scintillation spectrometry.
Hi! Could you send only the number? It should be in %, unit omitted.

Here are 5 compounds together with their reported answers.
CCCCN1CCC2(CC1)OCCN2S(=O)(=O)c1ccc(OC)cc1 [Compound C0102M]
131.8
CC(=O)c1ccc(S(=O)(=O)N2CCC3(CC2)NC(=O)CO3)cc1 [Compound C0087M]
262.8
Cc1ccc(S(=O)(=O)N2CCOC23CCN(CC2CC2)CC3)cc1 [Compound C0134M]
158.5
COc1ccc(S(=O)(=O)N2CCOC23CCN(C(C)C)CC3)cc1 [Compound C0133M]
139.4
O=[N+]([O-])c1ccc(S(=O)(=O)N2CCC3(CC2)NCCS3)cc1 [Compound C0044]
173.7

Now let's try a different one.
Need MOR agonist activity, [35S]GTPγS binding, FLNA-binding compound as agonist at 0.1 μM, item COc1ccc(S(=O)(=O)N2CCOC23CCCNC3)cc1 (stereo not drawn) [Compound C0145M-3]
193.0
